Data credit: patent US20200292534A1

- Assayed Target: T1, NLpoly11S
- T1 chain: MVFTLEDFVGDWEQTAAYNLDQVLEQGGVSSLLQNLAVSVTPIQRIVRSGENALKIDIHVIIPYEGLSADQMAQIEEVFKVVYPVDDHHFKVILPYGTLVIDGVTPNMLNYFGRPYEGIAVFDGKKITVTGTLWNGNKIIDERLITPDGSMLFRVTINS
- Protocol Summary: luminescence complementation titration, one-site specific binding
Reported Endpoint: Kd (nM)

> print(dat)
                                     binder  reported.endpoint  quantitative.result
1   NVTGYRLFKKISN (other) [HaloTag-NLPep79]                 Kd                 33.9
2  MNVTGYRLFKKISN (other) [NLpep79-HaloTag]                 Kd                 22.9
